Would you mind telling me the reported BMPRIb binding relative to wild type of each entry?
Target: T1, BMPRIb receptor-Fc fusion (UniProt O00238 14-126)
T1 construct: BMP receptor-Fc fusion, detected with anti-human IgG-HRP; also called ALK-6
T1 sequence (looked up): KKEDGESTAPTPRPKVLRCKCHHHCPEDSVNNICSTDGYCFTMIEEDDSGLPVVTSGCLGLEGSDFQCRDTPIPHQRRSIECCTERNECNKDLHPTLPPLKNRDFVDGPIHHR
Test: ELISA-like, fixed volume of conditioned media, receptor-Fc

Inquiry: Quickly give me recorded BMPRIb binding relative to wild type for BMP-7 variant S77T (ligand) STGGKQRSQNRSKTPKNQEALRMASVAENSSSDQRQACKKHELYVSFRDLGWQDWIIAPEGYAAYYCEGECAFPLNTYMNATNHAIVQTLVHFINPETVPKPCCAPTQLNAISVLYFDDSSNVILKKYRNMVVRACGCH
Reply text: 0.9 relative to wt = 1.0

Inquiry: Quickly give me recorded BMPRIb binding relative to wild type for BMP-7 variant K126G (ligand) STGGKQRSQNRSKTPKNQEALRMASVAENSSSDQRQACKKHELYVSFRDLGWQDWIIAPEGYAAYYCEGECAFPLNSYMNATNHAIVQTLVHFINPETVPKPCCAPTQLNAISVLYFDDSSNVILGKYRNMVVRACGCH
Reply text: 0.35 relative to wt = 1.0
